Test system: ChaGo-K-1
Assay: relative viability (nuclei count vs DMSO), 5 days (fraction); higher = more cells survive
Conditions: first compound 2.53 µM
Property measured: relative viability

INSERT INTO measurements (compound, measured_value) VALUES
  ('Nc1cccc2c1CN(C1CCC(=O)NC1=O)C2=O (centres undefined) [Lenalidomide] + NC(=O)Nc1cc(-c2cccc(F)c2)sc1C(=O)N[C@H]1CCCNC1 [AZD7762] (partner 0.2 µM)', 1.02),
  ('Nc1cccc2c1CN(C1CCC(=O)NC1=O)C2=O (centres undefined) [Lenalidomide] + COc1cc2c(Oc3ccc(NC(=O)C4(C(=O)Nc5ccc(F)cc5)CC4)cc3F)ccnc2cc1OCCCN1CCOCC1 [Foretinib] (partner 0.25 µM)', 0.975),
  ('Nc1cccc2c1CN(C1CCC(=O)NC1=O)C2=O (centres undefined) [Lenalidomide] + CC(=O)Nc1cccc(-n2c(=O)n(C3CC3)c(=O)c3c(Nc4ccc(I)cc4F)n(C)c(=O)c(C)c32)c1 [Trametinib] (partner 0.02 µM)', 1.02),
  ('Nc1cccc2c1CN(C1CCC(=O)NC1=O)C2=O (centres undefined) [Lenalidomide] + CC(=O)c1c(C)c2cnc(Nc3ccc(N4CCNCC4)cn3)nc2n(C2CCCC2)c1=O [Palbociclib] (partner 0.5 µM)', 1.01);

All figures here come from the supplement of paper PMC10307832.
